assay: Hemolytic activity in human RBC assessed as hemolysis at 50 uM relative to control; assay type: ADME, cell-based, Erythrocyte; settings: red blood cells (erythrocytes), read-out: Activity
Square brackets hold non-standard residues; d marks the D form. Peptide text beside a SMILES is read from it. Orn(Nα-NH2) = NCCC[C@H](NN)C(=O)O; Orn = NCCC[C@H](N)C(=O)O
measurement.name: hemolysis at 50 µM (%)
# output: bare number, implied unit %

| compound | hemolysis at 50 µM / % |
| --- | --- |
| CC(C)C[C@@H]1NC(=O)[C@H](CCCN)NC(=O)[C@H](C(C)C)NC(=O)[C@@H]2CCCN2C(=O)[C@@H](Cc2ccccc2)NC(=O)[C@H](CC(C)C)NC(=O)[C@H](CCCN)NC(=O)[C@H](C(C)C)NC(=O)[C@@H]2CCCN2C(=O)[C@@H](Cc2ccccc2)NC1=O (cyclo(L[dF]PV[Orn]L[dF]PV[Orn])) | 22 |

Shifting focus to the compound that follows.
Prompt: # hemolysis at 50 µM lookup, item CC(C)C[C@@H]1NC(=O)[C@H](CCCN)N(N)C(=O)[C@H](C(C)C)NC(=O)[C@@H]2CCCN2C(=O)[C@@H](Cc2ccccc2)NC(=O)[C@H](CC(C)C)NC(=O)[C@H](CCCN)N(N)C(=O)[C@H](C(C)C)NC(=O)[C@@H]2CCCN2C(=O)[C@@H](Cc2ccccc2)NC1=O (cyclo(L[dF]PV[Orn(Nα-NH2)]L[dF]PV[Orn(Nα-NH2)]))
Completion: 16

* * *

tested on: Enterobacter cloacae; assay: Antibacterial activity against Enterobacter cloacae 1454 assessed as growth inhibition by microbroth dilution assay; type: functional
Numbered stars: 1 amine (or outer) side, 2 acyl side, 3 side chain; on linkers, the order of the positions; unused ones are H or OH. Square brackets hold non-standard residues; d marks the D form. Peptide text beside a SMILES is read from it. X1 = NN([C@H](Cc1ccccc1)C(=O)[*:2])[*:1]; Orn(Nα-NH2) = NCCC[C@H](NN)C(=O)O; Orn = NCCC[C@H](N)C(=O)O
measurement.name: MIC
Number plus unit, in that order.

Previously resolved entries follow.
| compound | MIC |
| --- | --- |
| CC(C)C[C@@H]1NC(=O)[C@H](CCCN)NC(=O)[C@H](C(C)C)NC(=O)[C@@H]2CCCN2C(=O)[C@@H](Cc2ccccc2)N(N)C(=O)[C@H](CC(C)C)NC(=O)[C@H](CCCN)N(N)C(=O)[C@H](C(C)C)NC(=O)[C@@H]2CCCN2C(=O)[C@@H](Cc2ccccc2)NC1=O (cyclo(L[dF]PV[Orn(Nα-NH2)]L[X1]PV[Orn])) | 15 µM |
| CC(C)C[C@@H]1NC(=O)[C@H](CCCN)NC(=O)[C@H](C(C)C)NC(=O)[C@@H]2CCCN2C(=O)[C@@H](Cc2ccccc2)NC(=O)[C@H](CC(C)C)NC(=O)[C@H](CCCN)N(N)C(=O)[C@H](C(C)C)NC(=O)[C@@H]2CCCN2C(=O)[C@@H](Cc2ccccc2)NC1=O (cyclo(L[dF]PV[Orn]L[dF]PV[Orn(Nα-NH2)])) | 30 µM |

Prompt: # MIC lookup, item CC(C)C[C@@H]1NC(=O)[C@H](CCCN)NC(=O)[C@H](C(C)C)NC(=O)[C@@H]2CCCN2C(=O)[C@@H](Cc2ccccc2)N(N)C(=O)[C@H](CC(C)C)NC(=O)[C@H](CCCN)N(N)C(=O)[C@H](C(C)C)NC(=O)[C@@H]2CCCN2C(=O)[C@@H](Cc2ccccc2)N(N)C1=O (cyclo(L[X1]PV[Orn]L[X1]PV[Orn(Nα-NH2)]))
Completion: 35 µM

* * *

test system: Acinetobacter baumannii; assay: Antibacterial activity against Acinetobacter baumannii 5075 assessed as growth inhibition by microbroth dilution assay; assay type: functional; settings: AB5075
Numbered stars: 1 amine (or outer) side, 2 acyl side, 3 side chain; on linkers, the order of the positions; unused ones are H or OH. Square brackets hold non-standard residues; d marks the D form. Peptide text beside a SMILES is read from it. X1 = NN([C@H](Cc1ccccc1)C(=O)[*:2])[*:1]; Orn(Nα-NH2) = NCCC[C@H](NN)C(=O)O; Orn = NCCC[C@H](N)C(=O)O
measurement.name: MIC

Previously resolved entries follow.
| compound | study.system | MIC |
| --- | --- | --- |
| CC(C)C[C@@H]1NC(=O)[C@H](CCCN)NC(=O)[C@H](C(C)C)NC(=O)[C@@H]2CCCN2C(=O)[C@@H](Cc2ccccc2)N(N)C(=O)[C@H](CC(C)C)NC(=O)[C@H](CCCN)N(N)C(=O)[C@H](C(C)C)NC(=O)[C@@H]2CCCN2C(=O)[C@@H](Cc2ccccc2)NC1=O (cyclo(L[dF]PV[Orn(Nα-NH2)]L[X1]PV[Orn])) | Acinetobacter baumannii | 6.5 µM |
| CC(C)C[C@@H]1NC(=O)[C@H](CCCN)N(N)C(=O)[C@H](C(C)C)NC(=O)[C@@H]2CCCN2C(=O)[C@@H](Cc2ccccc2)NC(=O)[C@H](CC(C)C)NC(=O)[C@H](CCCN)N(N)C(=O)[C@H](C(C)C)NC(=O)[C@@H]2CCCN2C(=O)[C@@H](Cc2ccccc2)NC1=O (cyclo(L[dF]PV[Orn(Nα-NH2)]L[dF]PV[Orn(Nα-NH2)])) | Acinetobacter baumannii | 4 µM |

Shifting focus to the compound that follows.
Prompt: # MIC lookup, item CC(C)C[C@@H]1NC(=O)[C@H](CCCN)N(N)C(=O)[C@H](C(C)C)NC(=O)[C@@H]2CCCN2C(=O)[C@@H](Cc2ccccc2)N(N)C(=O)[C@H](CC(C)C)NC(=O)[C@H](CCCN)N(N)C(=O)[C@H](C(C)C)NC(=O)[C@@H]2CCCN2C(=O)[C@@H](Cc2ccccc2)N(N)C1=O (cyclo(L[X1]PV[Orn(Nα-NH2)]L[X1]PV[Orn(Nα-NH2)]))
Completion: 5 µM

* * *

tested on: Enterococcus faecium; experiment: Antibacterial activity against Enterococcus faecium 1450 assessed as growth inhibition by microbroth dilution assay; type: functional
Numbered stars: 1 amine (or outer) side, 2 acyl side, 3 side chain; on linkers, the order of the positions; unused ones are H or OH. Square brackets hold non-standard residues; d marks the D form. Peptide text beside a SMILES is read from it. X1 = NN([C@H](Cc1ccccc1)C(=O)[*:2])[*:1]; Orn(Nα-NH2) = NCCC[C@H](NN)C(=O)O; Orn = NCCC[C@H](N)C(=O)O
# MIC annotations
# output: bare number, implied unit µM

Previously resolved entries follow.
| compound | measurement.name | endpoint.value |
| --- | --- | --- |
| CC(C)C[C@@H]1NC(=O)[C@H](CCCN)N(N)C(=O)[C@H](C(C)C)NC(=O)[C@@H]2CCCN2C(=O)[C@@H](Cc2ccccc2)N(N)C(=O)[C@H](CC(C)C)NC(=O)[C@H](CCCN)N(N)C(=O)[C@H](C(C)C)NC(=O)[C@@H]2CCCN2C(=O)[C@@H](Cc2ccccc2)NC1=O (cyclo(L[dF]PV[Orn(Nα-NH2)]L[X1]PV[Orn(Nα-NH2)])) | MIC | 2 |
| CC(C)C[C@@H]1NC(=O)[C@H](CCCN)NC(=O)[C@H](C(C)C)NC(=O)[C@@H]2CCCN2C(=O)[C@@H](Cc2ccccc2)N(N)C(=O)[C@H](CC(C)C)NC(=O)[C@H](CCCN)NC(=O)[C@H](C(C)C)NC(=O)[C@@H]2CCCN2C(=O)[C@@H](Cc2ccccc2)N(N)C1=O (cyclo(L[X1]PV[Orn]L[X1]PV[Orn])) | MIC | 4 |

Shifting focus to the compound that follows.
Prompt: Please tell me: MIC of CC(C)C[C@@H]1NC(=O)[C@H](CCCN)NC(=O)[C@H](C(C)C)NC(=O)[C@@H]2CCCN2C(=O)[C@@H](Cc2ccccc2)NC(=O)[C@H](CC(C)C)NC(=O)[C@H](CCCN)N(N)C(=O)[C@H](C(C)C)NC(=O)[C@@H]2CCCN2C(=O)[C@@H](Cc2ccccc2)NC1=O (cyclo(L[dF]PV[Orn]L[dF]PV[Orn(Nα-NH2)])) , system Enterococcus faecium?
Completion: 3

* * *

system: Pseudomonas aeruginosa; test: Antibacterial activity against Pseudomonas aeruginosa 1419 assessed as growth inhibition by microbroth dilution assay; type: functional
Numbered stars: 1 amine (or outer) side, 2 acyl side, 3 side chain; on linkers, the order of the positions; unused ones are H or OH. Square brackets hold non-standard residues; d marks the D form. Peptide text beside a SMILES is read from it. X1 = NN([C@H](Cc1ccccc1)C(=O)[*:2])[*:1]; Orn(Nα-NH2) = NCCC[C@H](NN)C(=O)O; Orn = NCCC[C@H](N)C(=O)O
# MIC annotations
# output: bare number, implied unit µM

| compound | output.unit | MIC |
| --- | --- | --- |
| CC(C)C[C@@H]1NC(=O)[C@H](CCCN)NC(=O)[C@H](C(C)C)NC(=O)[C@@H]2CCCN2C(=O)[C@@H](Cc2ccccc2)NC(=O)[C@H](CC(C)C)NC(=O)[C@H](CCCN)N(N)C(=O)[C@H](C(C)C)NC(=O)[C@@H]2CCCN2C(=O)[C@@H](Cc2ccccc2)NC1=O (cyclo(L[dF]PV[Orn]L[dF]PV[Orn(Nα-NH2)])) | µM | 13 |
| CC(C)C[C@@H]1NC(=O)[C@H](CCCN)N(N)C(=O)[C@H](C(C)C)NC(=O)[C@@H]2CCCN2C(=O)[C@@H](Cc2ccccc2)NC(=O)[C@H](CC(C)C)NC(=O)[C@H](CCCN)N(N)C(=O)[C@H](C(C)C)NC(=O)[C@@H]2CCCN2C(=O)[C@@H](Cc2ccccc2)NC1=O (cyclo(L[dF]PV[Orn(Nα-NH2)]L[dF]PV[Orn(Nα-NH2)])) | µM | 10 |
| CC(C)C[C@@H]1NC(=O)[C@H](CCCN)NC(=O)[C@H](C(C)C)NC(=O)[C@@H]2CCCN2C(=O)[C@@H](Cc2ccccc2)N(N)C(=O)[C@H](CC(C)C)NC(=O)[C@H](CCCN)NC(=O)[C@H](C(C)C)NC(=O)[C@@H]2CCCN2C(=O)[C@@H](Cc2ccccc2)NC1=O (cyclo(L[dF]PV[Orn]L[X1]PV[Orn])) | µM | 20 |

Prompt: # MIC lookup, item CC(C)C[C@@H]1NC(=O)[C@H](CCCN)N(N)C(=O)[C@H](C(C)C)NC(=O)[C@@H]2CCCN2C(=O)[C@@H](Cc2ccccc2)N(N)C(=O)[C@H](CC(C)C)NC(=O)[C@H](CCCN)N(N)C(=O)[C@H](C(C)C)NC(=O)[C@@H]2CCCN2C(=O)[C@@H](Cc2ccccc2)NC1=O (cyclo(L[dF]PV[Orn(Nα-NH2)]L[X1]PV[Orn(Nα-NH2)]))
Completion: 12

Prompt: # MIC lookup, item CC(C)C[C@@H]1NC(=O)[C@H](CCCN)NC(=O)[C@H](C(C)C)NC(=O)[C@@H]2CCCN2C(=O)[C@@H](Cc2ccccc2)N(N)C(=O)[C@H](CC(C)C)NC(=O)[C@H](CCCN)N(N)C(=O)[C@H](C(C)C)NC(=O)[C@@H]2CCCN2C(=O)[C@@H](Cc2ccccc2)NC1=O (cyclo(L[dF]PV[Orn(Nα-NH2)]L[X1]PV[Orn]))
Completion: 15

Prompt: # MIC lookup, item CC(C)C[C@@H]1NC(=O)[C@H](CCCN)N(N)C(=O)[C@H](C(C)C)NC(=O)[C@@H]2CCCN2C(=O)[C@@H](Cc2ccccc2)N(N)C(=O)[C@H](CC(C)C)NC(=O)[C@H](CCCN)N(N)C(=O)[C@H](C(C)C)NC(=O)[C@@H]2CCCN2C(=O)[C@@H](Cc2ccccc2)N(N)C1=O (cyclo(L[X1]PV[Orn(Nα-NH2)]L[X1]PV[Orn(Nα-NH2)]))
Completion: 15

Prompt: # MIC lookup, item CC(C)C[C@@H]1NC(=O)[C@H](CCCN)NC(=O)[C@H](C(C)C)NC(=O)[C@@H]2CCCN2C(=O)[C@@H](Cc2ccccc2)N(N)C(=O)[C@H](CC(C)C)NC(=O)[C@H](CCCN)NC(=O)[C@H](C(C)C)NC(=O)[C@@H]2CCCN2C(=O)[C@@H](Cc2ccccc2)N(N)C1=O (cyclo(L[X1]PV[Orn]L[X1]PV[Orn]))
Completion: 35
